Assay: In vivo pharmacokinetic study, single oral dose, EPL in rabbit plasma by HPLC
Parameters: species or system rabbits (Oryctolagus cuniculus)
Settings: plasma, po, AUC0-α, single oral dose, mean±SD
Metric name: AUC (µg·h/mL)
// return numeric value only (unit: µg·h/mL, not printed)

Indicate the recorded AUC value for this compound: `CC(/C=C1\SC(=S)N(CC(=O)O)C1=O)=C\c1ccccc1`
192
